Tested on: MALME-3M melanoma
Experiment: NCI-60 one-dose screen, 48 h (100 = growth as untreated, 0 = no growth, -100 = all killed)
Settings: 10 µM unless noted
Procedure: Cells are grown in 96 well plates and exposed to the test compound for 48 hours. Compounds are tested at a single concentration, which is 10^-5 M for most compounds. The reported endpoint is percent growth (GI% or GIPRCNT), where numbers from 0 - 100% represent growth inhibition, and numbers from -100% - 0 represent cell death. For example, a value of 40 represents 60% growth inhibition. A value of 0 means no net growth occurred over the course of the experiment. […]
The panel holds about 83,000 compounds, 20% with a hit somewhere; the sample as a whole holds those more often. Activity calls are given as the source filed them. How the source made its calls: active means growth percent below 10; inactive means the rest.
MEASURED_ATTRIBUTE: growth

Some molecules with recorded growth:
• N[C@@H](Cc1cn(-c2ccnc3ccccc23)nn1)C(=O)O = 95.5% (inactive)
• COc1ccc(-c2nn3c(-c4ccccc4F)nnc3s2)cc1 = 66.1% (inactive)

q: Provide growth, tested on MALME-3M melanoma, for COc1cc(-c2ccc3ncnc(NC(C)c4ccccc4)c3c2)cnc1OC (centres undefined) .
a: 56.3% (inactive)

q: Provide growth, tested on MALME-3M melanoma, for `Cc1cccc2sc(/N=C(\N)C(Br)Br)nc12` .
a: -53.6% (active)
